Target: Tyk2 (Homo sapiens, UniProt P29597)
Construct: purchased Invitrogen
Sequence (P29597 whole entry): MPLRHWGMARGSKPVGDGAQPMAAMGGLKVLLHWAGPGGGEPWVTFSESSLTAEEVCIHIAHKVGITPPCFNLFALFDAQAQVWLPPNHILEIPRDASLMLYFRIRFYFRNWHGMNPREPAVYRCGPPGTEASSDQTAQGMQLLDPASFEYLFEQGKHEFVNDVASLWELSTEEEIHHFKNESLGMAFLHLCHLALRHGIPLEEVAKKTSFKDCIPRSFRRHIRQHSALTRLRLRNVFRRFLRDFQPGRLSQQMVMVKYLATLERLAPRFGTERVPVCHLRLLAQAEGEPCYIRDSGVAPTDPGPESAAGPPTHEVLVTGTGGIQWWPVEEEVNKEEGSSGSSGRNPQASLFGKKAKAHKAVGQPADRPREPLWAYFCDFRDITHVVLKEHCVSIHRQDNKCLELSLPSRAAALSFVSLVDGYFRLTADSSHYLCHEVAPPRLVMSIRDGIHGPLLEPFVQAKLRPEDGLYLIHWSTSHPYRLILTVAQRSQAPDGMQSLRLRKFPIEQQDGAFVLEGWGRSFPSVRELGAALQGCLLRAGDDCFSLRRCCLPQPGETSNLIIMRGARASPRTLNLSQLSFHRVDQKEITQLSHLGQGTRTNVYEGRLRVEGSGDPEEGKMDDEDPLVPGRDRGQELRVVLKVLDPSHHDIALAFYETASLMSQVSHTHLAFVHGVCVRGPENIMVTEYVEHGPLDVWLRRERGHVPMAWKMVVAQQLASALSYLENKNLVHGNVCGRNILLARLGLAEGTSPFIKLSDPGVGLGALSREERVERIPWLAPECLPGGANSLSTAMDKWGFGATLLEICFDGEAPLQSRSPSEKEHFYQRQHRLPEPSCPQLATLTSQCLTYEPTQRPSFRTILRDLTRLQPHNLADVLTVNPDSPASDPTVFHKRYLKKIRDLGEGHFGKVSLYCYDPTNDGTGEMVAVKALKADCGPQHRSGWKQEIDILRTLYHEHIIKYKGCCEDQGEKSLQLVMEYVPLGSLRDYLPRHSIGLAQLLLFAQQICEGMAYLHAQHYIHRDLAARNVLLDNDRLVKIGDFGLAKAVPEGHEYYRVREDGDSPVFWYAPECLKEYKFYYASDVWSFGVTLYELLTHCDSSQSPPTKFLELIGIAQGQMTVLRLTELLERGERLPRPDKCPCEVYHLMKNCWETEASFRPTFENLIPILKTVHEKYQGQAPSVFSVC
Assay: Tyk2 enzyme inhibition test (LANCE method)
Assay type: biochemical
Conditions: compound 1 μM; Tyk2 (Invitrogen), ULight-JAK1 substrate, ATP; well without enzyme = 100% inhibition; read-out: Tyk2 enzyme inhibitory activity (%, 1 μM)
Description: Tyk2 enzyme inhibitory activity of test compounds was measured by LANCE method (PerkinElmer). First, a test compound diluted with assay buffer (50 mM HEPES (pH=7.5), […], 1 mM EGTA, 2 mM DTT, 0.01% Tween20, 0.01% BSA) was added to 384-well plate at 2 μL each. Then, a Tyk2 (Invitrogen) solution and a fluorescence-labeled peptide substrate (ULight-JAK1, PerkinElmer) solution diluted with assay buffer at 375 ng/mL and 300 nM, respectively were added at 2 μL each. […]
parameter: inhibition at 1 µM (%)

Bench note: what inhibition at 1 µM did CC(C)[C@]1(C#N)CCN(c2ccnc(Nc3cnn(CCC(=O)N(C)C)c3)n2)C1=O show?
99

CCC1(C#N)CCN(c2ccnc(Nc3cnn(C)c3)n2)C1=O (stereo not drawn) ?
99

What do you get for CCC1(CC)CCN(c2ccnc(Nc3ccccc3)n2)C1=O ?
89

(P) Cn1cc(Nc2nccc(N3CCCC3=O)n2)cn1
(Q) CCC1(CC#N)CCN(c2ccnc(Nc3cnn(C)c3)n2)C1=O (stereo not drawn)
(R) CCC1(C#N)CCN(c2ccnc(NCc3ccc(C#N)cc3)n2)C1=O (stereo not drawn)
Order these by inhibition at 1 µM, descending, and give the full ranking. Write the labels out in the order the request specifies.
Q, P, R

----------
molecular target: Tyk2 (Homo sapiens); construct: purchased Invitrogen; assay: Tyk2 enzyme inhibition test (LANCE method); format: biochemical; details: compound 1 μM; Tyk2 (Invitrogen), ULight-JAK1 substrate, ATP; well without enzyme = 100% inhibition; read-out: Tyk2 enzyme inhibitory activity (%, 1 μM)
Where a name gives a salt, the structure may show the parent alone.
parameter: inhibition at 1 µM (%)

(1) CC(C)[C@]1(C#N)CCN(c2ccnc(Nc3cnn(CC(=O)N(C)C)c3)n2)C1=O [Example 87, hydrochloride]
(2) CCC1(C#N)CCN(c2ccnc(NCC3CC3)n2)C1=O (stereo not shown)
Pick one: 1 or 2 . Which has the bigger inhibition at 1 µM number? Please reply using the label of the selected record.
1

(A) CNC(=O)Cn1cc(Nc2nccc(N3CC[C@@](C#N)(C(C)C)C3=O)n2)cn1 [Example 86, hydrochloride]
(B) CNC(=O)Cn1cc(Nc2nccc(N3CC[C@](C#N)(C4CC4)C3=O)n2)cn1 [Example 133, hydrochloride]
Please choose the item with the lower inhibition at 1 µM value from this pair: A and B // output: label of the selected item
B
(B: 24%, A: 100%)

(1) CC(C)(CO)n1cc(Nc2nccc(N3CC[C@@](C#N)(C4CC4)C3=O)n2)cn1
(2) CCC1(C#N)CCN(c2ccnc(NCc3ccco3)n2)C1=O (stereo not shown)
Min inhibition at 1 µM? 1 | 2 Your answer should be the label attached to the chosen record.
2

----------
biological target: Tyk2 (Homo sapiens, UniProt P29597); construct: purchased Invitrogen; test: Tyk2 enzyme inhibition test (LANCE method); type: biochemical; conditions: compound 1 μM; Tyk2 (Invitrogen), ULight-JAK1 substrate, ATP; well without enzyme = 100% inhibition; read-out: Tyk2 enzyme inhibitory activity (%, 1 μM)
Structures can show the parent of a compound that is named as a salt.
parameter: inhibition at 1 µM (%)

Observed inhibition at 1 µM on Tyk2 (Homo sapiens, UniProt P29597) for N#C[C@@]1(C2CC2)CCN(c2ccnc(Nc3cnn(C4(CO)CC4)c3)n2)C1=O , please.
100

Now consider Cn1cc(Nc2ncc(F)c(N3CCC(C)(C)C3=O)n2)cn1 and answer again.
91

Also, CCC1(CC)CC(C)N(c2ccnc(Nc3cnn(C)c3)n2)C1=O (stereo not shown) [Example 33, hydrochloride] please.
97

Param item: Cn1cc(Nc2nccc(N3CCCC(C)(C)C3=O)n2)cn1 [Example 101, hydrochloride]
88

// same read-out, input: CCC1(CC)CCN(c2ccnc(Nc3cnn(C)c3)n2)C1=O [Example 10, hydrochloride]
97

Please answer likewise for CC(C)[C@]1(C#N)CCN(c2ccnc(Nc3cnn(CC(N)=O)c3)n2)C1=O [Example 85, hydrochloride]
100

Moving on to the next compound: CNC(=O)Cn1cc(Nc2nccc(N3CC[C@@](C#N)(C4CC4)C3=O)n2)cn1 [Example 134, hydrochloride]
99

And the next one, CC(C)[C@]1(C#N)CCN(c2ccnc(Nc3ccc(N4CCOCC4)cc3)n2)C1=O ?
100

Entry to check: CC(C)(C(N)=O)n1cc(Nc2nccc(N3CC[C@@](C#N)(C4CC4)C3=O)n2)cn1 [Example 109, hydrochloride]
99

Same question, CC[C@]1(C#N)CCN(c2ccnc(Nc3ccc(N4CCOCC4)cc3)n2)C1=O this time
100
